target: Trace amine-associated receptor 1 (Homo sapiens) (UniProt Q96RJ0); assay: blockers of beta-PEA-driven TAAR1 calcium signal – Fluo-8 calcium fluorescence, CHO RD-HGA16 cells, primary screen (AID 624466); details: CHO RD-HGA16 TAAR1, Fluo-8 calcium fluorescence, antagonist; at 3 µM; stronger effect = higher value;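 note: 0% = DMSO plus EC80 beta-PEA response and 100% = DMSO alone without agonist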
Sequence (Q96RJ0 whole entry, looked up): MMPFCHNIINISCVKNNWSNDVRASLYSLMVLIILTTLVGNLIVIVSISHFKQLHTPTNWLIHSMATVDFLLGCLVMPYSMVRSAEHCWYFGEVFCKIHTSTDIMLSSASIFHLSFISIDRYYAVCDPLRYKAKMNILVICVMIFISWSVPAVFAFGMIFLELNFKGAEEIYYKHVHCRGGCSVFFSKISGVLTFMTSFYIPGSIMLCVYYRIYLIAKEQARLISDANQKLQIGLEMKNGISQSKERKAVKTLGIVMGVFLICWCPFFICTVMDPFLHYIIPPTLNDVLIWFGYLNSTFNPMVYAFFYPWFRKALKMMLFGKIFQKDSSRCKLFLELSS
The campaign covered roughly 360,000 compounds. About 5,400 (1.5%) were called active. The entries come from a sample that favours actives as a whole.
For each entry below, report its inhibition value.
Could you give me the number in %? Just the number is fine.

### Prompt Missing value: inhibition, Trace amine-associated receptor 1 (Homo sapiens) (UniProt Q96RJ0), entry COc1ccc(CCNC(=O)c2nnc(CS(=O)(=O)c3ccccc3)o2)cc1OC . Fill in?
### Response -2.06

### Prompt Moving on to the next compound: CN(C(=O)COC(=O)CCCc1c[nH]c2ccccc12)c1c(N)n(Cc2ccccc2)c(=O)[nH]c1=O
### Response 2.09

### Prompt Moving on to the next compound: C=CCC[C@@H](Cc1ccc(F)cc1)C(=O)O[C@H](CNC(=O)[C@H](CC=C)CC(=O)N(CCO)Cc1ccccc1)c1ccccc1
### Response 75.5

### Prompt Moving on to the next compound: COC(=O)C1=C(C)N(Cc2cccc(C(F)(F)F)c2)C(=NCc2cccc(C(F)(F)F)c2)NC1c1ccccc1C(F)(F)F (centres undefined)
### Response -30.9

### Prompt Moving on to the next compound: Cc1nnc(SCC(=O)NC(=O)NC2CCCC2)n1N
### Response -8.31

### Prompt Moving on to the next compound: COC(=O)c1sc(-c2ccc(C(C)(C)C)cc2)cc1NC(=O)/C=C/C(=O)O
### Response 69.3

### Prompt Moving on to the next compound: COc1ccc(NS(=O)(=O)c2ccc(N3CCOCC3)c(NC(=O)/C=C/C(=O)O)c2)cc1
### Response -2.93

### Prompt Moving on to the next compound: COc1ccc(N2CCN(C(=O)COC(=O)c3cccc(S(=O)(=O)Nc4ccccc4OC)c3)CC2)cc1
### Response 21.7

### Prompt Moving on to the next compound: CC[C@H](C)[C@H]1CNC(=O)C(=O)N1CC1CCN(CCc2ccc(OC)c(OC)c2)CC1
### Response 9.23

### Prompt Moving on to the next compound: COc1ccccc1NC(=O)/C=C/C(N)=O
### Response -1.16

### Prompt Moving on to the next compound: COC(=O)[C@]12CCCCC=C1N(Cc1ccc3c(c1)OCO3)C(=O)[C@H](CC(=O)N1CCOCC1)C2
### Response 2.33

### Prompt Moving on to the next compound: C=CCC[C@@H](Cc1ccc(F)cc1)C(=O)OC[C@H](Cc1c[nH]c2ccccc12)NC(=O)[C@@H](CC=C)CC(=O)N(CCO)Cc1ccccc1
### Response 38.4

### Prompt Moving on to the next compound: CC(=O)N1C[C@@H](CO)[C@@H](N(C)C(=O)C(C)(C)C)C[C@H]1c1ccccc1Br
### Response -17.9

### Prompt Moving on to the next compound: Cc1cc(Br)cn2c(Cc3ccccc3C(F)(F)F)c(-c3ccc(C#N)cc3)nc12
### Response 3.16

### Prompt Moving on to the next compound: CCOC(=O)C1CSCCS(=O)(=O)N1Cc1ccc(Cl)cc1 (centres undefined)
### Response -2.26

### Prompt Moving on to the next compound: O=C(Nc1c(Cl)c(C2CC2)nn1-c1ccccc1)C(Cl)(Cl)Cl
### Response -12.3

### Prompt Moving on to the next compound: COc1ccccc1C(=O)N1O[C@]23C=C[C@]14C[C@@H](O)CC[C@]4(C)C2CC[C@]1(C)[C@@H]([C@H](C)/C=C/[C@H](C)C(C)C)CC[C@H]13 (some centres undefined)
### Response 2.31

### Prompt Moving on to the next compound: C[C@H](CO)N1C[C@H](C)[C@H](CN(C)C(=O)Nc2ccc(C(F)(F)F)cc2)Oc2c(NC(=O)c3ccncc3)cccc2C1=O
### Response 3.31

### Prompt Moving on to the next compound: COc1cccc(C=CC(=O)C=CC=Cc2ccccc2)c1
### Response -24.3

### Prompt Moving on to the next compound: COc1ccc2[nH]c(C(=O)Nc3ccccc3Cl)cc2c1
### Response -23.7

### Prompt Moving on to the next compound: CN1CCN(C(=O)c2ccc(NS(=O)(=O)c3ccccc3)cc2)CC1
### Response -8.92

### Prompt Moving on to the next compound: C=CCC[C@H](Cc1ccc(F)cc1)C(=O)OC[C@H](C)NC(=O)[C@H](CC=C)CC(=O)N(CCO)Cc1ccccc1
### Response 55.4

### Prompt Moving on to the next compound: C=CC[C@@H](CC(=O)N[C@H](CO)Cc1ccccc1)C(=O)N[C@@H](COC(=O)[C@@H](CC=C)Cc1ccc(F)cc1)Cc1c[nH]c2ccccc12
### Response 9.92

### Prompt Moving on to the next compound: Cc1ccc(NC(=O)COC(=O)CNC(=O)c2ccc(Cl)cc2Cl)cc1S(=O)(=O)N1CCOCC1
### Response -20.3

### Prompt Moving on to the next compound: CCC1CCCCN1CCNS(=O)(=O)c1ccc2c(c1)CCN2C(C)=O (centres undefined)
### Response -5.09

### Prompt Moving on to the next compound: CC[C@H](NC(=O)[C@H](Cc1ccccc1)NC(=O)[C@H]1O[C@@H](n2cnc3c(=O)[nH]c(N)nc32)[C@H](O)[C@@H]1O)c1ccccc1
### Response -41.7

### Prompt Moving on to the next compound: C=CC[C@H](CC(=O)N(CCO)Cc1ccccc1)C(=O)N[C@@H](COC(=O)[C@@H](CC=C)Cc1ccc(F)cc1)Cc1ccccc1
### Response 61.4

### Prompt Moving on to the next compound: COC(=O)[C@]12CCCCC=C1N(Cc1ccc3c(c1)OCO3)C(=O)[C@H](CC(=O)NCc1cccs1)C2
### Response 21.1

### Prompt Moving on to the next compound: C[C@H](O)[C@@H]1C(=O)N2CCc3c([nH]c4c(-c5ccc6c(c5)OCO6)cccc34)[C@@H]2C[C@@H]1N(C)C(=O)c1ccco1
### Response 60.8

### Prompt Moving on to the next compound: COc1ccc(NC(=O)CNc2cc(S(=O)(=O)N3CCOCC3)ccc2N2CCOCC2)c(OC)c1
### Response 14.2

### Prompt Moving on to the next compound: C=CCN1C(=O)N(Cc2ccccc2)c2ccccc2S1(=O)=O
### Response -0.33

### Prompt Moving on to the next compound: NC(=O)c1nsc(C(=O)N(CC(=O)NCc2ccc(F)cc2)Cc2ccco2)c1N
### Response 10.2

### Prompt Moving on to the next compound: CCOC(=O)CNC(=O)N(C)[C@H]1C[C@H]2c3[nH]c4c(-c5ccc6c(c5)OCO6)cccc4c3CCN2C(=O)[C@H]1[C@H](C)O
### Response 12.4

### Prompt Moving on to the next compound: CC(C)[C@H]1COCCS(=O)(=O)N1Cc1ccccc1-c1cccc2c1sc1ccccc12
### Response -54.8
